Each entry below lists one item and its recorded IC50 value.
Tested on: Coxsackievirus
PROTOCOL: Inhibitory concentration against Coxsackievirus B3
Assay type: functional, organism-based, Viruses

Examples from the recorded data:
CCn1nnc(-c2ccc(OCCC(C)CCN3CCN(c4ccncc4)C3=O)cc2)n1 (centres undefined): > 25 µM
O=C1N(CCCCCOc2ccc(-c3ccc(Cl)cc3)cc2)CCN1c1ccncc1: > 12.5 µM

Item: CC(CCOc1ccc(-c2ccc(Cl)cc2)cc1)CCN1CCN(c2ccncc2)C1=O (centres undefined) | IC50: > 12.5 µM

GET /value?item= CCc1nc(-c2ccc(OCCC(C)CCN3CCN(c4ccncc4)C3=O)cc2)no1 (centres undefined) &field=IC50 returns > 25 µM
